assay system: h-NK3 (Homo sapiens)
Sequence (P29371 1-465): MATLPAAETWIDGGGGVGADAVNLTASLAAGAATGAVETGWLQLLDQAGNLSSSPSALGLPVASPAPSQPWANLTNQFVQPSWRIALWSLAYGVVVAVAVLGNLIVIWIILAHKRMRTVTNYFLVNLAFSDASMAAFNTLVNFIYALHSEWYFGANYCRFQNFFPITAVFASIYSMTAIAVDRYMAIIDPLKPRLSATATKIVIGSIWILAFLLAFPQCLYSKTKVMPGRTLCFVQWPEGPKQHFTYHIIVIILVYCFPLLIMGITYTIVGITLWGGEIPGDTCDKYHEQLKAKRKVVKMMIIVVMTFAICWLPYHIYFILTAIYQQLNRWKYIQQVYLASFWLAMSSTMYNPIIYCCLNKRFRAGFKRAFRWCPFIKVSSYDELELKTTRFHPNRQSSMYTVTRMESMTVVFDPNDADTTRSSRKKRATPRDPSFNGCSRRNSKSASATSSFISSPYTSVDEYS
test description: Signal transduction (ST), intracellular Ca++ FLIPR, NK3 antagonistic activity
Type: cell-based
run parameters: read-out: pIC50 h-NK3 (converted)
quantity kind: IC50 (µM)

[P] CC(C(=O)N1CC(N2CCN([C@H]3CCN(C(=O)c4cc(C(F)(F)F)cc(C(F)(F)F)c4)[C@H](Cc4ccccc4)C3)CC2)C1)c1ccccc1 (stereo partly drawn) [Compound 14]
[Q] O=C(c1cnccn1)N1CC(N2CCN([C@H]3CCN(C(=O)c4cc(C(F)(F)F)cc(C(F)(F)F)c4)[C@H](Cc4ccccc4)C3)CC2)C1 [Compound 20]
Would you kindly point out which of P and Q has the smaller IC50 figure? Identify your pick by its label.
P
(P: 0.631 µM, Q: 8.13 µM)

* * *

assay system: h-NK1 (Homo sapiens, UniProt P25103)
Sequence (P25103 whole entry): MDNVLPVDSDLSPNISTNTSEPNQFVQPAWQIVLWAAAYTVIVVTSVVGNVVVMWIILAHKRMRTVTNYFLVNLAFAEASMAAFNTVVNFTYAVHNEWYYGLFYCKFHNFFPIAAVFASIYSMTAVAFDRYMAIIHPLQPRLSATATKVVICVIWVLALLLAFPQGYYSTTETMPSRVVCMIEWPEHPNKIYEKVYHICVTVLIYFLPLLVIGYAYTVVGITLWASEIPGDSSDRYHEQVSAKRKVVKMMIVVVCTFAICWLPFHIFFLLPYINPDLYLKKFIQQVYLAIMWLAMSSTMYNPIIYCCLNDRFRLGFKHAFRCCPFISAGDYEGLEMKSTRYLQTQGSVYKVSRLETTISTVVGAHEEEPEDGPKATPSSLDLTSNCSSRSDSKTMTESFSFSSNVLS
test description: Signal transduction (ST), intracellular Ca++ FLIPR, NK1 antagonistic activity
Assay type: cell-based
run parameters: read-out: pIC50 h-NK1 (converted)
quantity kind: IC50 (nM)

// below: answered molecules
O=C(c1ccoc1)N1CC(N2CCN([C@H]3CCN(C(=O)c4cc(C(F)(F)F)cc(C(F)(F)F)c4)[C@H](Cc4ccccc4)C3)CC2)C1
55
Cc1nnsc1C(=O)N1CC(N2CCN([C@H]3CCN(C(=O)c4cc(C(F)(F)F)cc(C(F)(F)F)c4)[C@H](Cc4ccccc4)C3)CC2)C1
7.41
O=C(c1cccnc1)N1CC(N2CCN([C@H]3CCN(C(=O)c4cc(C(F)(F)F)cc(C(F)(F)F)c4)[C@H](Cc4ccccc4)C3)CC2)C1
49
CC(C)(C)OC(=O)NC(C)(C)C(=O)N1CC(N2CCN([C@H]3CCN(C(=O)c4cc(C(F)(F)F)cc(C(F)(F)F)c4)[C@H](Cc4ccccc4)C3)CC2)C1
33.9
O=C([C@H]1CCOC1)N1CC(N2CCN([C@H]3CCN(C(=O)c4cc(C(F)(F)F)cc(C(F)(F)F)c4)[C@H](Cc4ccccc4)C3)CC2)C1
43.7
CC(C(=O)N1CC(N2CCN([C@H]3CCN(C(=O)c4cc(C(F)(F)F)cc(C(F)(F)F)c4)[C@H](Cc4ccccc4)C3)CC2)C1)c1ccccc1 (stereo partly drawn)
22.9

[a] O=C(c1cc(C(F)(F)F)cc(C(F)(F)F)c1)N1CCC(N2CCN(C3CNC3)CC2)CC1Cc1ccccc1 (stereo not drawn)
[b] Cc1cc(C(=O)N2CC(N3CCN([C@H]4CCN(C(=O)c5cc(C(F)(F)F)cc(C(F)(F)F)c5)[C@H](Cc5ccccc5)C4)CC3)C2)n(C)n1
Compare IC50: is it lower for a or for b ? I would appreciate it if you answered with the label of your choice.
b
(b: 72.4 nM, a: 123 nM)

* * *

assay system: h-NK1 (Homo sapiens)
test description: Signal transduction (ST), intracellular Ca++ FLIPR, NK1 antagonistic activity
Assay type: cell-based
run parameters: read-out: pIC50 h-NK1 (converted)
quantity kind: IC50 (nM)

O=C(C1CC1)N1CC(N2CCN([C@H]3CCN(C(=O)c4cc(C(F)(F)F)cc(C(F)(F)F)c4)[C@H](Cc4ccccc4)C3)CC2)C1
63.1
N#Cc1cccc(C(=O)N2CC(N3CCN([C@H]4CCN(C(=O)c5cc(C(F)(F)F)cc(C(F)(F)F)c5)[C@H](Cc5ccccc5)C4)CC3)C2)c1
45.7

[1] O=C(c1ccc(F)c(F)c1)N1CC(N2CCN([C@H]3CCN(C(=O)c4cc(C(F)(F)F)cc(C(F)(F)F)c4)[C@H](Cc4ccccc4)C3)CC2)C1
[2] O=C(c1ccccc1)N1CC(N2CCN(C3CCN(C(=O)c4cc(C(F)(F)F)cc(C(F)(F)F)c4)C(Cc4ccccc4)C3)CC2)C1 (stereo not shown)
Which numeric IC50 is bigger, that of 1 or that of 2 ? Write the label of whichever entry you select.
1

Reference source: patent US7435736B2
